# System: 317291-083-R-J1-PDC complex spheroids, viability
# method-summary: Anticancer human tumor 317291-083-R-J1-PDC patient-derived soft tissue sarcoma cell line growth inhibition [GQUAD]; active = viability on the fitted dose curve at most 10% of control; inactive = the rest
# setup-conditions: second compound 0.316 µM; first compound 3.16 µM
Pick one and only one: active, inactive

molecule | classification
O=C(NO)c1cnc(N2CCN(S(=O)(=O)c3ccc4ccccc4c3)CC2)nc1 + CN(C)c1ccc(Nc2c3ccc(NC(=O)CCN4CCCC4)cc3nc3cc(NC(=O)CCN4CCCC4)ccc23)cc1 | active
C=CCn1c(=O)c2cnc(Nc3ccc(N4CCN(C)CC4)cc3)nc2n1-c1cccc(C(C)(C)O)n1 + Cc1[nH]c2ccc(F)cc2c1-c1nc2c3cccnc3c3ncccc3c2[nH]1 | active
COc1cc(C2c3cc4c(cc3C(OC3OC5COC(C)OC5C(O)C3O)C3COC(=O)C23)OCO4)cc(OC)c1O (stereo unspecified) + Cc1[nH]c2ccc(F)cc2c1-c1nc2c3cccnc3c3ncccc3c2[nH]1 | inactive
C=CC(=O)N1CCN(c2nc(=O)n(-c3c(C)ccnc3C(C)C)c3nc(-c4c(O)cccc4F)c(F)cc23)C(C)C1 (stereo unspecified) + CN(C)c1ccc(Nc2c3ccc(NC(=O)CCN4CCCC4)cc3nc3cc(NC(=O)CCN4CCCC4)ccc23)cc1 | inactive
Nc1ccn(C2OC(CO)C(O)C2(F)F)c(=O)n1 (stereo unspecified) + CN(C)c1ccc(Nc2c3ccc(NC(=O)CCN4CCCC4)cc3nc3cc(NC(=O)CCN4CCCC4)ccc23)cc1 | active
O=C(NO)c1cnc(N2CCN(S(=O)(=O)c3ccc4ccccc4c3)CC2)nc1 + Cc1cnc(CNC(=O)c2c(=O)c3ccc(N4CCCN(C)CC4)nc3n3c2sc2ccccc23)cn1 | active
CC(C)(O)C1CCC(Nc2ccc3ncc(-c4cccc(C(F)(F)F)c4)n3n2)CC1 (stereo unspecified) + Cc1cnc(CNC(=O)c2c(=O)c3ccc(N4CCCN(C)CC4)nc3n3c2sc2ccccc23)cn1 | active
COc1cc(C2c3cc4c(cc3C(OC3OC5COC(C)OC5C(O)C3O)C3COC(=O)C23)OCO4)cc(OC)c1O (stereo unspecified) + CN(C)c1ccc(Nc2c3ccc(NC(=O)CCN4CCCC4)cc3nc3cc(NC(=O)CCN4CCCC4)ccc23)cc1 | inactive

Fill in: this test's call for O=C(c1cc(Cc2n[nH]c(=O)c3ccccc23)ccc1F)N1CCN(C(=O)C2CC2)CC1 + Cc1[nH]c2ccc(F)cc2c1-c1nc2c3cccnc3c3ncccc3c2[nH]1 is ___
inactive

Called result for CC(C)(O)C1CCC(Nc2ccc3ncc(-c4cccc(C(F)(F)F)c4)n3n2)CC1 (stereo unspecified) + CN(C)c1ccc(Nc2c3ccc(NC(=O)CCN4CCCC4)cc3nc3cc(NC(=O)CCN4CCCC4)ccc23)cc1
active

What classification did CC1COCCN1c1cc(C2(S(C)(=N)=O)CC2)nc(-c2ccnc3[nH]ccc23)n1 (stereo unspecified) + Cc1[nH]c2ccc(F)cc2c1-c1nc2c3cccnc3c3ncccc3c2[nH]1 end up with in this test?
inactive

====

# Tested on: 317291-083-R-J1-PDC complex spheroids, viability
# method-summary: Anticancer human tumor 317291-083-R-J1-PDC cell line growth inhibition [GQUAD];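 note: spheroids exposed to compounds for one week before readout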
# setup-conditions: compound alone; run of 02/20/2024
# Description: DNA G-quadruplex Stabilizer Agents in Combinations in Complex Spheroids A high-throughput screen of multi-cell type tumor spheroids was designed to identify active combinations of DNA G-quadruplex stabilizer agents and targeted small molecules. […] Compounds. […] If the clinical Cmax for an agent had not been determined, the highest concentration tested was 10 microM. […]
pIC50: −log10 of the molar value.
measurement-name: pIC50

Fill in: pIC50 of "Cc1[nH]c2ccc(F)cc2c1-c1nc2c3cccnc3c3ncccc3c2[nH]1" is ___
< 5.00
